# Tested system: T1, streptavidin (UniProt P22629 37-163, limits assumed)
# T1 construct: control well without peptide
# T1 sequence (P22629 37-163 limits assumed): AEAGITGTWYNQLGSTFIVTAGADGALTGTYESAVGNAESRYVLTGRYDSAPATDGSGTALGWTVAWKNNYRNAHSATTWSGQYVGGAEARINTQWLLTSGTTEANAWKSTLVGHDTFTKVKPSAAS
# Assay text: ELISA, soluble Fab on streptavidin-coated control well without peptide
Property name: Optical Density (OD450)
The reply should be a number in OD450, with the unit left off.

Solved cases below.
[[record]]
binder = "3-59 (Fab, V domains shown, soluble Fab from phage display library huFabL-4, Flag tag) VH: GVQLVQSGGGLVQPGGSLRLSCAASGFTFSSYSMNWVRQAPGKGLEWVAVISYDESNKYYADSVKGRFTISRDNSKNTLYLQMNSLRAEDTAVYYCAPGGSYHDYWGKGTLVTVSS VL: EIVLTQSPLSLPVTLGQPASISCRSSQSLAHSNGNTYLNWFQQRPGQSPRRLIYKVSNRDSGVPDRFSGSGSGTDFTLKISRVEADDVGVYYCMQGSHWPPTFGQGTKVEIKR"
property_name = "Optical Density"
uom = "OD450"
value_measured = 0.06

[[record]]
binder = "3-69 (Fab, V domains shown, soluble Fab from phage display library huFabL-4, Flag tag) VH: QVQLQQSGPGLVKPSQTLSLTCAISGDSVSSNSAAWNWIRQSPSRGLEWLGRTYYRSKWYNDYAVSVKSQITINPDTSKNQFSLQLNSVTPEDTAVYYCAREQFSGMDVWGRGTLVTVSS VL: QSVLTQPPSASGTPGQRVTISCSGSSSNIGRNYVYWYQQLPGTAPKLLTDSNNQRPSGVPDRFSASKSGTSASLAISGLRSEDEADYYCAAWDGSLRGRVFGGGTKMTVLG"
property_name = "Optical Density"
uom = "OD450"
value_measured = 0.07

[[record]]
binder = "3-67 (Fab, V domains shown, soluble Fab from phage display library huFabL-4, Flag tag) VH: QVQLQQSGPGLVKPSQTLSLTCAISGDSVSSNSAAWNWIRQSPSRGLEWLGRTYYRSKWYNDYAVSVKSRITINPDTSKNQFSLQLNSVTPEDTAVYYCARAARLGMDVWGKGTMVTVSS VL: QSVVTQPPSVSAAPGQKVTISCSGTSFNIGNNYVSWYQQLPGTAPKLLIYDNIRRPSGIPERFSGSKSGTSATLGITGLQTGDEADYYCGTWDSSLRAYVFGTGTKLTVLG"
property_name = "Optical Density"
uom = "OD450"
value_measured = 0.06

[[record]]
binder = "3-60 (Fab, V domains shown, soluble Fab from phage display library huFabL-4, Flag tag) VH: QVQLVQSGGGVVQPGRSLRLSCAASGFTFSSYAMHWVRQAPGKGLEWVAVISYDGSNKYYADSVKGRFTISRDNAKNSLYLQMNSLRAEDTAVYYCAREQAARPTLGAFDIWGKGTTVTVSS VL: DVVMTQSPLSLPVTPGEPASISCRSSQSLLHSNGNNYLAWYLQKPGQSPQLLMYLGSNRASGVPDRFSGSGSGTDFTLKISRVEAEDVGVYYCMQGIHLPLTFGGGTKVEIKR"
property_name = "Optical Density"
uom = "OD450"
value_measured = 0.06


Optical Density recorded for this binder, 3-61 (Fab, V domains shown, soluble Fab from phage display library huFabL-4, Flag tag) VH: QVQLVESGAEVKKPGASVKVSCKASGYTFTSYYMHWVRQAPGQGLEWMGIINPSGGGTKYAQSLQGRVTMTRDTSTSTVYMELNSLTSEDTAVYYCARGGTPSGLDYWGKGTLVTVSS VL: DIQMTQSPSSLSASVGDRVTITCRASQGISNYLAWYQQKPGKVPKLLIYAASTLQSGVPSRFSGSGSGTDFTLTISSLQPEDVATYYCQKYNSAPLTFGGGTKVEIKR , is 0.06
